test system: Septoria tritici—SEPTTR; assay: Leaf Blotch of Wheat, in vivo whole plant, 24 Hour Protectant; conditions: Zymoseptoria tritici, 24 h, 100 ppm spray, wheat, 24 hour protectant; control of fungal infection vs untreated plants; read-out: SEPTTR in vivo 1 Day Protectant
pest or weed control at 100 ppm values for the compounds below.

| compound | target_entity | pest or weed control at 100 ppm |
| --- | --- | --- |
| COc1ccnc(C(=O)N[C@@H]2[C@@H](O)[C@H](O)[C@@H](CO)O[C@@H]2O)c1O | Septoria tritici—SEPTTR | < 25% |
| COc1ccnc(C(=O)N[C@H]2COC(=O)[C@H](Cc3ccccc3)[C@@H](OC(=O)NC(C)(C)C)[C@H](C)OC2=O)c1O | Septoria tritici—SEPTTR | 25 to 74% |
| COc1ccnc(C(=O)Nc2ccc(Oc3cccc(C#N)c3)cc2)c1O | Septoria tritici—SEPTTR | < 25% |
| COc1ccnc(C(=O)Nc2ccc(Sc3ccc(C(F)(F)F)cc3)cc2)c1O | Septoria tritici—SEPTTR | < 25% |
| COc1ccnc(C(=O)N[C@@H](Cc2ccc(OCc3ccccc3)cc2)C(=O)O)c1O | Septoria tritici—SEPTTR | < 25% |
| COc1ccnc(C(=O)Nc2ccc(Oc3ccccc3C#N)cc2)c1O | Septoria tritici—SEPTTR | < 25% |
| COc1ccccc1Oc1ccc(NC(=O)c2nccc(OC)c2O)cc1 | Septoria tritici—SEPTTR | < 25% |
| COc1cccc(Oc2ccccc2NC(=O)c2nccc(OC)c2O)c1 | Septoria tritici—SEPTTR | < 25% |
| COc1ccnc(C(=O)Nc2ccc(Cc3cccc(C(F)(F)F)c3)cc2)c1O | Septoria tritici—SEPTTR | 25 to 74% |
| COc1ccnc(C(=O)Nc2ccc(C(=O)Nc3cccc(C(F)(F)F)c3)cc2)c1O | Septoria tritici—SEPTTR | 25 to 74% |
| COc1ccnc(C(=O)N[C@H]2COC(=O)[C@H](Cc3ccccc3)[C@@H](OC(=O)C(C)(C)C)[C@H](C)OC2=O)c1O | Septoria tritici—SEPTTR | 25 to 74% |
| COc1ccnc(C(=O)N[C@@H]2OC[C@@H](OC(C)=O)[C@H](OC(C)=O)[C@H]2OC(C)=O)c1O | Septoria tritici—SEPTTR | < 25% |
| COc1ccnc(C(=O)NC(COC(=O)C(C)Cc2ccccc2)C(=O)OC(C)C)c1O (stereo not shown) | Septoria tritici—SEPTTR | < 25% |
| COc1ccnc(C(=O)N[C@H](C(=O)O[C@@H](C)[C@H](OC(=O)C(C)C)[C@@H](Cc2ccccc2)C(=O)OCc2ccccc2)[C@@H](C)OC(C)=O)c1O | Septoria tritici—SEPTTR | < 25% |
| COc1ccnc(C(=O)Nc2cccc(Oc3cccc(C)c3)c2)c1O | Septoria tritici—SEPTTR | < 25% |
| COc1ccnc(C(=O)Nc2ccc(OCc3ccc(C(F)(F)F)cc3)cc2)c1O | Septoria tritici—SEPTTR | 25 to 74% |
| COc1ccnc(C(=O)Nc2ccc(Oc3ccccc3Cl)cc2)c1O | Septoria tritici—SEPTTR | < 25% |
| COc1ccnc(C(=O)Nc2ccccc2Oc2ccc(Cl)cc2)c1O | Septoria tritici—SEPTTR | < 25% |
| COCc1cc(Oc2ccc(C(F)(F)F)cc2)ccc1NC(=O)c1nccc(OC)c1O | Septoria tritici—SEPTTR | 25 to 74% |
| COc1ccnc(C(=O)Nc2ccccc2Oc2ccc(C)cc2)c1O | Septoria tritici—SEPTTR | < 25% |
| COC(=O)C(COC(=O)C(C)Cc1ccccc1)NC(=O)c1nccc(OC)c1O (stereo not shown) | Septoria tritici—SEPTTR | < 25% |
| COc1ccnc(C(=O)Nc2ccc(Oc3ccccc3C)cc2)c1O | Septoria tritici—SEPTTR | < 25% |
| COC(=O)C(COC(=O)C(COC(=O)C(C)C)Cc1ccccc1)NC(=O)c1nccc(OC)c1O (stereo not shown) | Septoria tritici—SEPTTR | < 25% |
| COc1ccnc(C(=O)N[C@H]2COC(=O)[C@H](Cc3ccccc3)[C@@H](OC(=O)C3CC3)[C@H](C)OC2=O)c1O | Septoria tritici—SEPTTR | 25 to 74% |
| COc1ccnc(C(=O)Nc2ccc(Oc3cccc(C(F)(F)F)c3)cc2)c1O | Septoria tritici—SEPTTR | 25 to 74% |
| COC(=O)C(COC(=O)C(C)c1ccccc1)NC(=O)c1nccc(OC)c1O (stereo not shown) | Septoria tritici—SEPTTR | < 25% |
| COc1ccnc(C(=O)Nc2ccc(NC(=O)c3cccc(C(F)(F)F)c3)cc2)c1O | Septoria tritici—SEPTTR | 25 to 74% |
| COc1ccnc(C(=O)Nc2cc(C)c(OC(=O)c3ccc(C(F)(F)F)cc3)c(C)c2)c1O | Septoria tritici—SEPTTR | 25 to 74% |
| CCCCCCCCCCCCCCCCCC(=O)O[C@H]1[C@H](C)OC(=O)[C@@H](NC(=O)c2nccc(OC)c2O)COC(=O)[C@@H]1Cc1ccccc1 | Septoria tritici—SEPTTR | < 25% |
| COc1ccnc(C(=O)N[C@H]2C[C@@H](O[Si](C)(C)C(C)(C)C)O[C@@H](C)[C@@H]2OCc2ccccc2)c1O | Septoria tritici—SEPTTR | 25 to 74% |
| COc1ccnc(C(=O)NC(COC(=O)C(Cc2ccccc2)C(C)OC(=O)C(C)C)C(=O)OC(C)C)c1O (stereo not shown) | Septoria tritici—SEPTTR | < 25% |
